Catalogue of compounds with associated cell viability
Test system: TAZ-IND MCF10A-TAZ tumor cells
MEASUREMENT PROTOCOL: cell viability relative to DMSO control; higher = less cytotoxic; extreme values may be limits of the assay
PROTOCOL CONDITIONS: 2.5 µM; 72 h

{"COMPOUND": "CN(C)CCSSCCNC(=O)C1CCN(C(=O)CSc2ccc(Cl)cc2)CC1", "VALUE UNIT": "%", "cell viability": 92}
{"COMPOUND": "CC(=O)c1c(C)c2cnc(Nc3ccc(N4CCNCC4)cn3)nc2n(C2CCCC2)c1=O", "VALUE UNIT": "%", "cell viability": 100}
{"COMPOUND": "CCc1nc(N)nc(N)c1-c1ccc(Cl)cc1", "VALUE UNIT": "%", "cell viability": 100}
{"COMPOUND": "COc1ccccc1S(=O)(=O)Nc1ccc2c(c1)CN(C)C(=O)N2", "VALUE UNIT": "%", "cell viability": 94}
{"COMPOUND": "COc1cc(F)c(F)c(Nc2ccc(I)cc2F)c1NS(=O)(=O)C1(C[C@H](O)CO)CC1 [Refametinib (RDEA119, Bay 86-9766)]", "VALUE UNIT": "%", "cell viability": 80}
